test: Red blood cell binding (RBC to plasma ratio), human whole blood; type: in vitro ADME; details: 30 minutes at 37° C., nominal 500 ng/ml
Mean Red Blood Cell to Plasma Ratio strictly less than 7 = Yes. Otherwise No.

| compound | qualitative-label |
| --- | --- |
| Cl.Cl.N[C@H]1CC[C@H](Nc2nc(NC3CCN(S(=O)(=O)c4cccc(C(F)(F)F)c4)CC3)c3ncn(C4CCCC4)c3n2)CC1 [Compound 112] | Yes |
| Cl.Cl.N[C@H]1CC[C@H](Nc2nc(NC3CCN(C(=O)Oc4ccc([N+](=O)[O-])cc4)CC3)c3ncn(C4CCCC4)c3n2)CC1 [Compound 89] | Yes |
| CCOC(=O)c1ccc(NC(=O)N2CCC(Nc3nc(N[C@H]4CC[C@H](N)CC4)nc4c3ncn4C3CCCC3)CC2)cc1.Cl.Cl [Compound 154] | Yes |

Lab note: next compound to report on.
q: Is 7 strictly greater than the compound's reported Mean Red Blood Cell to Plasma Ratio? compound: Cl.Cl.N[C@H]1CC[C@H](Nc2nc(NC3CCN(C(=O)Oc4ccc(F)cc4)CC3)c3ncn(C4CCCC4)c3n2)CC1 [Compound 87]
a: No
